# ASSAY METHOD TEXT: Heparin affinity column, NaCl concentration required for elution
# Format: binding
# CONDITION SET: 50 mM sodium phosphate pH 7.5, gradient 0 to 2 M NaCl over 20 column volumes
Where no end group is shown, it is not given here. [ ]: non-standard residue; d: D form. The star is where a group is joined. FITC = O=C1OC2(c3ccc(O)cc3Oc3cc(O)ccc32)c2ccc(NC(=S)*)cc21; Dansyl = CN(C)c1cccc2c(S(=O)(=O)*)cccc12; βAla = NCCC(=O)O

>  <SUBSTANCE>
dansyl-GKAFAKLAARLYRKAGC (Dansyl-GKAFAKLAARLYRKAGC) [PBD1]

>  <NaCl Elution Conc.>
685.9 mM

$$$$
>  <SUBSTANCE>
WKA(β)FAKLNCRLYRKA (WK[βAla]FAKLNCRLYRKA) [PBD7]

>  <NaCl Elution Conc.>
422.6 mM

$$$$
>  <SUBSTANCE>
FITC-A(β)AAFAKLAARLYRKAGC ({FITC}-[βAla]AAFAKLAARLYRKAGC) [PBD2]

>  <NaCl Elution Conc.>
354.8 mM

$$$$
>  <SUBSTANCE>
Dansyl-GYGRKKRRQRRR [Dansyl-TAT]

>  <NaCl Elution Conc.>
727.6 mM

$$$$
>  <SUBSTANCE>
AKLNCRLYRKANKSSKL [PBD8]

>  <NaCl Elution Conc.>
481.2 mM

$$$$

The reported measurements were obtained from patent US20030190364A1.
